Recorded values, source patent US5091367A.

test: solubility in a neutral buffer used for nasal application; settings: well compatible neutral buffer as used for nasal application of protirelin
endpointName: Solubility in neutral nasal buffer

Worked cases, answers included:
[[record]]
substance = "Pgl-His-Trp-Ser-Tyr-D-Trp-Ser(β-D-Glc-NAc)-Arg-Pro-NH-C2 H5"
resultvalue = "125 mg/mL"

[[record]]
substance = "Pgl-His-Trp-Ser-Tyr-D-Trp-Ser(D-Ara)-Arg-Pro-NH-C2 H5"
resultvalue = "5 mg/mL"

[[record]]
substance = "Pgl-His-Trp-Ser-Tyr-D-Ser(L-Ara)-Leu-Arg-Pro-NH-C2 H5"
resultvalue = "125 mg/mL"

[[record]]
substance = "Pgl-His-Trp-Ser-Tyr-D-Trp-Ser(D-Rib)-Arg-Pro-NH-C2 H5"
resultvalue = "25 mg/mL"


Items follow; give Solubility in neutral nasal buffer for each.
1. Pgl-His-Trp-Ser-Tyr-D-Ser(β-L-Xyl)-Leu-Arg-Pro-NH-C2 H5
2. Pgl-His-Trp-Ser-Tyr-D-Ser(β-Lac)-Leu-Arg-Pro-NH-C2 H5
3. Pgl-His-Trp-Ser-Tyr-D-Trp-Ser(β-D-Xyl)-Arg-Pro-NH-C2 H5
4. Pgl-His-Trp-Ser-Tyr-D-Ser(β-D-Gal)-Leu-Arg-Pro-NH-C2 H5
5. Pgl-His-Trp-Ser-Tyr-D-Ser(β-D-Glc-NAc)-Leu-Arg-Pro-NH-C2 H5
6. Pgl-His-Trp-Ser-Tyr-D-Trp-Ser(Ac-α-D-Man)-Arg-Pro-NH-C2 H5
7. Pgl-His-Trp-Ser-Tyr-D-Ser(β-D-Xyl)-Leu-Arg-Pro-NH-C2 H5

## Output
10 mg/mL
167 mg/mL
1.7 mg/mL
125 mg/mL
125 mg/mL
10.0 mg/mL
50.0 mg/mL

----------
test system: rat super-ovulation; assay: biological activity in rat super-ovulation; assay type: in vivo
endpointName: ED20-50 Super-ovul.

I have 6 substances here; please give me ED20-50 Super-ovul. for each one.
1. Pgl-His-Trp-Ser-Tyr-D-Ser(D-Ara)-Leu-Arg-Pro-NH-C2 H5
2. Pgl-His-Trp-Ser-Tyr-D-Ser(L-Ara)-Leu-Arg-Pro-NH-C2 H5
3. Pgl-His-Trp-Ser-Tyr-D-Trp-Ser(Ac-β-D-Xyl)-Arg-Pro-NH-C2 H5
4. Pgl-His-Trp-Ser-Tyr-D-Trp-Ser(Ac-β-D-Glc)-Arg-Pro-NH-C2 H5
5. Pgl-His-Trp-Ser-Tyr-D-Trp-Ser(D-Rib)-Arg-Pro-NH-C2 H5
6. Pgl-His-Trp-Ser-Tyr-D-Trp-Ser(Ac2 -β-L-Fuc)-Arg-Pro-NH-C2 H5

## Output
< 24 ng/rat
12 ng/rat
6 ng/rat
5 ng/rat
< 24 ng/rat
200 ng/rat

Give ED20-50 Super-ovul. for each of the items listed below.
1. Pgl-His-Trp-Ser-Tyr-D-Ser(Ac-α-L-Rha)-Leu-Arg-Pro-NH-C2 H5
2. Pgl-His-Trp-Ser-Tyr-D-Ser(β-D-Gal)-Leu-Arg-Pro-NH-C2 H5
3. Pgl-His-Trp-Ser-Tyr-D-Ser(D-Rib)-Leu-Arg-Pro-NH-C2 H5
4. Pgl-His-Trp-Ser-Tyr-D-Ser(Ac-β-L-Fuc)-Leu-Arg-Pro-NH-C2 H5
5. Pgl-His-Trp-Ser-Tyr-D-Trp-Ser(Ac-β-L-Fuc)-Arg-Pro-NH-C2 H5
6. Pgl-His-Trp-Ser-Tyr-D-Trp-Ser(Ac-α-L-Rha)-Arg-Pro-NH-C2 H5
7. Pgl-His-Trp-Ser-Tyr-D-Trp-Ser(Ac2 -α-D-Man)-Arg-Pro-NH-C2 H5

## Output
1. 3 ng/rat
2. 12 ng/rat
3. < 6 ng/rat
4. 6 ng/rat
5. 200 ng/rat
6. > 24 ng/rat
7. > 24 ng/rat

# batch size: 3; output ED20-50 Super-ovul. per entry
1. Pgl-His-Trp-Ser-Tyr-D-Ser(β-D-Xyl)-Leu-Arg-Pro-NH-C2 H5
2. Pgl-His-Trp-Ser-Tyr-D-Trp-Ser(α-L-Rha)-Arg-Pro-NH-C2 H5
3. Pgl-His-Trp-Ser-Tyr-D-Ser(α-L-Rha)-Leu-Arg-Pro-NH-C2 H5

## Output
1. 6 ng/rat
2. > 24 ng/rat
3. 3 ng/rat
